Attribution: patent US10941182

Give measured EC50 Human APJ Receptor for each item. Keep answers brief.
System Tested: T1, human APJ receptor (human, UniProt P35414 1-380)
T1 sequence (looked up): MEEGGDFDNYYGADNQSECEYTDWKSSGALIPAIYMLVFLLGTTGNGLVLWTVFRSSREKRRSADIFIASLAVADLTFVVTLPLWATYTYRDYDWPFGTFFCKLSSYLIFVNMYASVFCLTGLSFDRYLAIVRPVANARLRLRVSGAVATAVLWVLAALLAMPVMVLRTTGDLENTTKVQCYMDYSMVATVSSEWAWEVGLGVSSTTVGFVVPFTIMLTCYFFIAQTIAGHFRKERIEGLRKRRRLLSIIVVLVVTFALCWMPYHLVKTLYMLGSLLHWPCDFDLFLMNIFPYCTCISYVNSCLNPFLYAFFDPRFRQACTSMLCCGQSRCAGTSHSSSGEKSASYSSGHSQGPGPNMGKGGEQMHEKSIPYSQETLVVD
Experimental Details: cell-based or functional assay
Starred links: 1 amine or outer side, 2 acyl side, 3 side chain; linkers in the order of their positions; H or OH if unused. Non-standard residues stand in square brackets, D forms with d. No end group written: not given here. rCha = cyclohexylalanine with ψ(CH2NH) reduced amide bond, C1CCC(C[C@@H](C[*:2])N[*:1])CC1; dBip = N[C@H](Cc1ccc(-c2ccccc2)cc1)C(=O)O; Oic = O=C(O)[C@@H]1C[C@@H]2CCCC[C@@H]2N1; Phe(4-Cl) = N[C@@H](Cc1ccc(Cl)cc1)C(=O)O; Phe(4-I) = N[C@@H](Cc1ccc(I)cc1)C(=O)O; hArg = N=C(N)NCCCC[C@H](N)C(=O)O; Cha = N[C@@H](CC1CCCCC1)C(=O)O; NMeL = CN[C@@H](CC(C)C)C(=O)O; β3hN = NC(=O)C[C@H](N)CC(=O)O; Nle = CCCC[C@H](N)C(=O)O; Orn = NCCC[C@H](N)C(=O)O
Return type: number; implicit unit nM.

Ask: # return recorded EC50 Human APJ Receptor for input Ac-[Orn]F[hArg][hArg]Q[hArg]P[hArg][rCha]SHKG[Oic][Nle]P[Phe(4-Cl)]-OH (also: reduced amide bond (CH2NH) at residue 9) [apelin polypeptide SEQ ID NO: 42]
Reply: 0.0449

Ask: # return recorded EC50 Human APJ Receptor for input Ac-[dR]QRP[hArg][NMeL]SHKG[Oic][Phe(4-I)]P[dBip]-OH (SMILES CC(=O)N[C@H](CCCNC(=N)N)C(=O)N[C@@H](CCC(N)=O)C(=O)N[C@@H](CCCNC(=N)N)C(=O)N1CCC[C@H]1C(=O)N[C@@H](CCCCNC(=N)N)C(=O)N(C)[C@@H](CC(C)C)C(=O)N[C@@H](CO)C(=O)N[C@@H](Cc1c[nH]cn1)C(=O)N[C@@H](CCCCN)C(=O)NCC(=O)N1[C@H](C(=O)N[C@@H](Cc2ccc(I)cc2)C(=O)N2CCC[C@H]2C(=O)N[C@H](Cc2ccc(-c3ccccc3)cc2)C(=O)O)C[C@@H]2CCCC[C@@H]21) [apelin polypeptide SEQ ID NO: 52]
Reply: 0.623

Ask: # return recorded EC50 Human APJ Receptor for input [Orn]F[hArg][hArg][β3hN][hArg]P[hArg][Cha]SHKG[Oic][Nle]P[Phe(4-Cl)] [apelin polypeptide SEQ ID NO: 691]
Reply: 0.453
